Each recorded value in this set is attributed to patent US20210332036A1.

# Protocol: PK parameters, IV dosing (plasma and brain exposure)
# Type: in vivo
# Design: concentration or dose not given beside the values
# Conditions: Mouse IV, brain; read-out: AUC(last) Brain
Measured Property: AUC(0-t)

Input Nc1ccc(-c2cccs2)cc1NC(=O)c1ncc(N2CCNCC2)cn1 [Compound 007] , output reported AUC(0-t).
30 to 40 ng·h/mL

Quote AUC(0-t) reported for CN1CCN(c2cnc(C(=O)Nc3cc(-c4cccs4)ccc3N)nc2)CC1 [Compound 006] please.
700 to 800 ng·h/mL

Return the recorded AUC(0-t) value; entry: Nc1ccc(-c2ccccc2)cc1NC(=O)c1ncc(NCCOCc2cccnc2)cn1 [Compound 016]
< 100 ng·h/mL

Give me measured AUC(0-t), please, for this compound: Nc1ccc(-c2ccccc2)cc1NC(=O)c1ncc(N2CCNCC2)cn1 [Compound 009]
300 to 400 ng·h/mL

Entry Nc1ccc(-c2cccs2)cc1NC(=O)c1ccc(NC2CCN(C(=O)N3CCNCC3)CC2)cn1 [Compound 014] needs its AUC(0-t) filled in; supply it.
100 to 200 ng·h/mL
